The measurements presented in this section are drawn from paper PMC6979384.

# Tested on: ING3
# EXPERIMENTAL DETAILS: Histone peptide microarray
# Type: binding, human
# RUN CONDITIONS: ING3, GST-tagged; arrays performed twice, n of 4
Where no end group is shown, it is not given here. [ ]: non-standard residue; d: D form. pS = N[C@@H](COP(=O)(O)O)C(=O)O
MEASUREMENT LABEL: Array Heatmap value (peptide array binding signal)

>  <SUBSTANCE>
H4K12ac + KQ5,8,16,20: H4 1-23 (SGRGQGGQGLGK(Ac)GGAQRHRQVLR; UniProt P62805 2-24, looked up, variant K5Q K8Q K16Q K20Q)

>  <OBS VALUE>
0.4727

$$$$
>  <SUBSTANCE>
H2A.Z (1-19) (N-ac): H2AZ 1-19 (Ac-AGGKAGKDSGKAKTKAVSR; UniProt P0C0S5 2-20, looked up, fragment)

>  <OBS VALUE>
0.4524

$$$$
>  <SUBSTANCE>
H2AX (S139p): H2AX 132-142 (GKKATQA[pS]QEY; UniProt P16104 133-143, looked up, fragment)

>  <OBS VALUE>
0.4704

$$$$
>  <SUBSTANCE>
H2AS1p + K5ac: H2A 1-17 ([pS]GRGK(Ac)QGGKARAKAKTR; UniProt P0C0S8 2-18, looked up, fragment)

>  <OBS VALUE>
0.3526

$$$$
